- System: NCI/ADR-RES
- Experiment summary: NCI tumour cell line growth inhibition, 48 h
Activity calls are given as the source filed them. Cut-off read from the data, not from the text of the source: active = GI50 up to about 1.1 µM and inactive = higher.
Entry note: the call must match one of t = active, f = inactive

Recorded results for 9 compounds are shown here.
Asked: Could you please tell me the result logged for O=P(c1ccccc1)(c1ccccc1)C(NCc1ccccc1)c1ccc(F)cc1 (stereo not given) in this assay?
Given back: f

Asked: Could you please tell me the result logged for `C=C(Br)CN(CC(=C)Br)C(C)=O` in this assay?
Given back: f

Asked: Could you please tell me the result logged for N#CC12C(=O)N3C(=NC(c4ccccc4)NC3c3ccccc3)C1(C#N)C(c1ccccc1)NC1=C2CCC1 (stereo not given) in this assay?
Given back: f

Asked: Could you please tell me the result logged for `CCOC(=O)C1=COC(C)(C)CC1=O` in this assay?
Given back: f

Asked: Could you please tell me the result logged for `CN1CCN(c2nc3c(c(=O)n(C)c(=O)n3C)n2C)CC1` in this assay?
Given back: f

Asked: Could you please tell me the result logged for COC1/C=C(C)/C=C/C(C)/C=C/C(=O)OC(/C(C)=C/C=C(\C)CNC(=O)[C@H](CO)NC=O)C(C)/C=C/C=C/C(OC)CC/C=C(C)/C=C/C1 (stereo not given in full) in this assay?
Given back: t

Asked: Could you please tell me the result logged for `CCOC(=O)N/N=C(/N)Cc1ccccc1` in this assay?
Given back: f

Asked: Could you please tell me the result logged for NC(Cc1cc(I)c(O)c(I)c1)C(=O)O (stereo not given) in this assay?
Given back: f

Asked: Could you please tell me the result logged for `COc1ccc(/C=c2/s/c(=C(\C#N)c3nc4ccccc4[nH]3)n(-c3ccccc3)c2=O)cc1` in this assay?
Given back: f

Now consider the entry below.
Asked: Could you please tell me the result logged for `Cc1cc(C)c2c(=O)n(CN3CCN(c4ccccc4)CC3)sc2n1` in this assay?
Given back: f

###

- Tested on: HL-60
- Experiment summary: NCI tumour cell line growth inhibition, 48 h
Active and inactive are the calls of the source. No stated cut-off is given here; in the data, active = GI50 up to about 1.1 µM and inactive = higher.
Entry note: the call must match one of True for active, False for inactive

Recorded results for 10 compounds are shown here.
Asked: Could you please tell me the result logged for `CCCCCCOP(=O)(OCCCCCC)C(NC(=O)OCC)(C(F)(F)F)C(F)(F)F` in this assay?
Given back: False

Asked: Could you please tell me the result logged for `CCCCCC[N+](C)(C)Cc1ccc(C[N+](C)(C)CCCCCC)cc1` in this assay?
Given back: False

Asked: Could you please tell me the result logged for `NCCCCNCCCNC(=O)c1nc(-c2nc(CCN)sc2Cl)sc1Cl` in this assay?
Given back: False

Asked: Could you please tell me the result logged for `Cc1ccc2c(C)c3ccc4ccccc4c3c[n+]2c1.[O-][Cl+3]([O-])([O-])[O-]` in this assay?
Given back: False

Asked: Could you please tell me the result logged for `O=C(Nc1nc2c(=O)[nH]cnc2s1)c1ccccc1` in this assay?
Given back: False

Asked: Could you please tell me the result logged for `N#CC(C#N)=C1C(C#N)=C(N)NC12OCCO2` in this assay?
Given back: False

Asked: Could you please tell me the result logged for `CCC(CC)NC1=C(NC(C)=O)C(=O)c2ccccc2C1=O` in this assay?
Given back: False

Asked: Could you please tell me the result logged for `C=C(Br)CN(C)CC(=C)Br` in this assay?
Given back: False

Asked: Could you please tell me the result logged for COc1cc(O)c2c(c1)C(=O)C1=C(C2=O)C(O)C[C@@](C)(O)C1 (some centres not stated) in this assay?
Given back: True

Asked: Could you please tell me the result logged for `COc1ccc(NC(=O)C(C#N)=C(SC)SC)cc1` in this assay?
Given back: False

---
Asked: Could you please tell me the result logged for `NCC(O)CN.Oc1c(Cl)c(Cl)c(Cl)c(Cl)c1Cl` in this assay?
Given back: False

Asked: Could you please tell me the result logged for CC(C)C1CCC/C=C/C=C/C=C/C=C/C(OC2OC(C)C(O)C(N)C2O)CC2OC(O)(CC(O)CC(O)C(O)CCC(=O)O1)CC(O)C2C(=O)O (configuration not stated) in this assay?
Given back: False

Asked: Could you please tell me the result logged for `CCC1(CC)C(=O)N(C(=O)c2ccc(Cl)cc2)N(C(=O)c2ccccc2Cl)C1=O` in this assay?
Given back: False

Asked: Could you please tell me the result logged for CCN1CCC(O)(/C=C/c2ccccc2)C(C(=O)/C=C/c2ccccc2)C1 (configuration not stated) in this assay?
Given back: False

Asked: Could you please tell me the result logged for `Cc1c(S(=O)(=O)/N=C(\NN)Nc2ccc(Cl)cc2)sc2ccc(Cl)cc12` in this assay?
Given back: False

Asked: Could you please tell me the result logged for N#CC12C(=O)N3C(=NC(c4ccccc4)NC3c3ccccc3)C1(C#N)C(c1ccccc1)NC1=C2CCC1 (configuration not stated) in this assay?
Given back: False

// provenance: ChEMBL document CHEMBL1201862
